IC50: recorded values
Target: NaV1.7 (Homo sapiens, UniProt Q15858)
Construct: expressed in transfected cells; host or cells: HEK293, tetracycline-inducible
Sequence (Q15858 whole entry): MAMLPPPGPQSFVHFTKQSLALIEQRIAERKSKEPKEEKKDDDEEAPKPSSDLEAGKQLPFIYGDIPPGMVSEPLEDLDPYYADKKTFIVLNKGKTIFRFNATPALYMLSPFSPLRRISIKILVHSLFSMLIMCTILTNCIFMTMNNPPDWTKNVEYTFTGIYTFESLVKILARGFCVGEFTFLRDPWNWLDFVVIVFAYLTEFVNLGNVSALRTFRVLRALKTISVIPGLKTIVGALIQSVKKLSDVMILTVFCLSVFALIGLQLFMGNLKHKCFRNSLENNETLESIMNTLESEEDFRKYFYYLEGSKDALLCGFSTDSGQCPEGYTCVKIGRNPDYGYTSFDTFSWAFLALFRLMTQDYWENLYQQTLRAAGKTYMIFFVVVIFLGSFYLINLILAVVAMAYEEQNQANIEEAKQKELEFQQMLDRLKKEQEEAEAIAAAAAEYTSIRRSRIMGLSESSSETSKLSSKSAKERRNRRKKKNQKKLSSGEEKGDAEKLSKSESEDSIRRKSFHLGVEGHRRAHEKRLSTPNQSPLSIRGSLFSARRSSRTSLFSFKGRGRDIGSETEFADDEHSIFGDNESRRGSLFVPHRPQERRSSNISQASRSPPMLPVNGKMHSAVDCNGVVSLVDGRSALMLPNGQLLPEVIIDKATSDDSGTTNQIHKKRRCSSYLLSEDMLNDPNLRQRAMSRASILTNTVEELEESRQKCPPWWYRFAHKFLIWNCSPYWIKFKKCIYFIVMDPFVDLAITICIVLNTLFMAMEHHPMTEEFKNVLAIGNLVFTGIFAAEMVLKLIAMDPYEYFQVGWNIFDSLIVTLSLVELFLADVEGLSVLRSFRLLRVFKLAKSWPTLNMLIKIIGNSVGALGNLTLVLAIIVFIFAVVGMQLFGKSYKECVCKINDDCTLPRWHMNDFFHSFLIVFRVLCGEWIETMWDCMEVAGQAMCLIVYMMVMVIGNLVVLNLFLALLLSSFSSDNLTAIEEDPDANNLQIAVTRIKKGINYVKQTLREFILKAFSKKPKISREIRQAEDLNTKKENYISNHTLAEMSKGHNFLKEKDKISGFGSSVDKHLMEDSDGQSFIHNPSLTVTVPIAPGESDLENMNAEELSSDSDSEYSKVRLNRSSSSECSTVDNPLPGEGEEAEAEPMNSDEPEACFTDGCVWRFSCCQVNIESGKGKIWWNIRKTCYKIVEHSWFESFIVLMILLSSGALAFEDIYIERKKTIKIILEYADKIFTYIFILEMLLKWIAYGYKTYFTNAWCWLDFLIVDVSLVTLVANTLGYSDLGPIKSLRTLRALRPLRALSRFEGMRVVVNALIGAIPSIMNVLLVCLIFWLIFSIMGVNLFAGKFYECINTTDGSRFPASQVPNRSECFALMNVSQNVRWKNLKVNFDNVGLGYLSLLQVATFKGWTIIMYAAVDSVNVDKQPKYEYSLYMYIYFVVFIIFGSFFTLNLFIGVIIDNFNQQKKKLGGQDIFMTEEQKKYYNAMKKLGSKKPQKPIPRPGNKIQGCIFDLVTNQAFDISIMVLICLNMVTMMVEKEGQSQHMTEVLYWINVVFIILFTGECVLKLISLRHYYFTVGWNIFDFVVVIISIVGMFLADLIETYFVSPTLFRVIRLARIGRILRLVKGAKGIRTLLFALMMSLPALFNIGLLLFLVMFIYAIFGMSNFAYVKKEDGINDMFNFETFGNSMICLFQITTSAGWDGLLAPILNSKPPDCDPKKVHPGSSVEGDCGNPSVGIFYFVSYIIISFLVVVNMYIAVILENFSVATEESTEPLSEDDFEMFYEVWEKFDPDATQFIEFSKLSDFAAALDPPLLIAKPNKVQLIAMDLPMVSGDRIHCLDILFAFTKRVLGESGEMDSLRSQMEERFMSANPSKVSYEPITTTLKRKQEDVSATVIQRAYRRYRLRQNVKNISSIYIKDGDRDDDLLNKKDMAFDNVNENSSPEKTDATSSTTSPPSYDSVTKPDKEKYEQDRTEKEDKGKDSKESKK
Assay: Automated patch clamp (Qube 384), external block of NaV1.7 in HEK293 cells
Type: cell-based
Conditions: compound in external solution, read-out: NaV1.7 Extracellular Inhibition

A selection of reference data follows.
CCOC(=O)c1cccc(C)c1NC(=O)C[N+]1(Cc2ccccc2)CCCCCC1	1 to 10 µM
CC[N+]1(CC(=O)Nc2c(C)cccc2C(=O)OC)CCCC(c2ccccc2)C1 (mixture of isomers)	10 to 30 µM
CCOC(=O)c1cccc(C)c1NC(=O)C[N+]1(Cc2ccccc2)CCCC1.[Br-]	1 to 10 µM

IC50 for NaV1.7 (Homo sapiens, UniProt Q15858) with input COC(=O)c1cccc(C)c1NC(=O)C[n+]1cccc(-c2ccccc2)c1.[Br-] equals 10 to 30 µM

IC50 for NaV1.7 (Homo sapiens, UniProt Q15858) with input Cc1cccc(C(=O)OC(C)C)c1NC(=O)C[N+]1(Cc2ccccc2)CCCCCC1.[Br-] equals 1 to 10 µM

IC50 for NaV1.7 (Homo sapiens, UniProt Q15858) with input COC(=O)c1cccc(C)c1NC(=O)C[N+]1(Cc2ccccc2)CCCCC1.[Br-] equals > 30 µM

IC50 for NaV1.7 (Homo sapiens, UniProt Q15858) with input CNC(=O)C1CCC[N+](CC(=O)Nc2c(C)cccc2C(=O)OC)(Cc2ccccc2)C1 (mixture of isomers) equals > 30 µM

IC50 for NaV1.7 (Homo sapiens, UniProt Q15858) with input COC(=O)c1cccc(C)c1NC(=O)C[N+]1(Cc2ccccc2)CCCC(C(=O)NC(C)C)C1.[Br-] (centres unmarked) equals > 30 µM
